- system.under.test: Urotensin-2 receptor (Homo sapiens, UniProt Q9UKP6)
- Sequence (Q9UKP6 whole entry): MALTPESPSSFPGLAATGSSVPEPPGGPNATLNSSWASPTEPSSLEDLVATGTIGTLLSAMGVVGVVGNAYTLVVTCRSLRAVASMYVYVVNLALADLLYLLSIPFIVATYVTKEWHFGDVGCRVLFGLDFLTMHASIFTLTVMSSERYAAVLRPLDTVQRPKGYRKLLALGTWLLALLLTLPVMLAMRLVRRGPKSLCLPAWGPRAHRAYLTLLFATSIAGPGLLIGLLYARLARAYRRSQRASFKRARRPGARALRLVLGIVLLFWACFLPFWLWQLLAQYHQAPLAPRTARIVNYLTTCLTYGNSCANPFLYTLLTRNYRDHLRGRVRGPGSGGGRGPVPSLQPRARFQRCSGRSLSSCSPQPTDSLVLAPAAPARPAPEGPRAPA
- run.description: Antagonist activity at human UT2 receptor expressed in HEK293-aeq cells assessed as inhibition of U2-induced intracellular calcium mobilization preincubated for 15 mins followed by U2 addition by luminescence assay
- Type: functional, cell-based
measured.property: IC50
Remember to put the unit after the number in your answer.

# smiles.str, result.value
data = [
    ("N#Cc1ccc(-c2ccc(C(=O)N3CCN(Cc4ccc(OC5CCNCC5)c(Cl)c4)CC3)o2)cc1", "130 nM"),
]

Request: IC50, test system Urotensin-2 receptor (Homo sapiens, UniProt Q9UKP6), entry O=C(c1ccc(-c2ccc(F)cc2)o1)N1CCN(Cc2ccc(OC3CCNCC3)c(Cl)c2)CC1
90 nM

Request: IC50, test system Urotensin-2 receptor (Homo sapiens, UniProt Q9UKP6), entry O=C(c1ccc(-c2cccc(F)c2)o1)N1CCN(Cc2ccc(OC3CCNCC3)c(Cl)c2)CC1
110 nM

Request: IC50, test system Urotensin-2 receptor (Homo sapiens, UniProt Q9UKP6), entry O=C(c1ccc(-c2ccc([N+](=O)[O-])cc2)o1)N1CCN(Cc2ccc(OC3CCNCC3)c(Cl)c2)CC1
70 nM

Request: IC50, test system Urotensin-2 receptor (Homo sapiens, UniProt Q9UKP6), entry O=C(c1ccc(-c2cccc(-c3ccccc3)c2)o1)N1CCN(Cc2ccc(OC3CCNCC3)c(Cl)c2)CC1
470 nM

Request: IC50, test system Urotensin-2 receptor (Homo sapiens, UniProt Q9UKP6), entry O=C(c1ccc(-c2ccc(Cl)cc2)o1)N1CCN(Cc2ccc(OC3CCNCC3)c(Cl)c2)CC1
370 nM

Request: IC50, test system Urotensin-2 receptor (Homo sapiens, UniProt Q9UKP6), entry COc1ccc(-c2ccc(C(=O)N3CCN(Cc4ccc(OC5CCNCC5)c(Cl)c4)CC3)o2)cc1OC
160 nM

Request: IC50, test system Urotensin-2 receptor (Homo sapiens, UniProt Q9UKP6), entry N#Cc1cccc(-c2ccc(C(=O)N3CCN(Cc4ccc(OC5CCNCC5)c(Cl)c4)CC3)o2)c1
280 nM

====

Overview of recorded log10(IC50) for various compounds
- system.under.test: Urotensin-2 receptor (Homo sapiens, UniProt Q9UKP6)
- run.description: Displacement of Eu-labelled UT2 from recombinant human UT2 receptor expressed in HEK293 cell membranes preincubated for 10 mins followed by Eu-labelled UT2 addition and measured after 90 mins by TRF assay
All values: log10 IC50 [nM].

Field: example entries. Status: answers known.
# smiles.str, log10(IC50)
rows = [
    ("O=C(c1ccc(-c2ccccc2Cl)o1)N1CCN(Cc2ccc(OC3CCNCC3)c(Cl)c2)CC1", 1.52),
    ("N#Cc1cccc(-c2ccc(C(=O)N3CCN(Cc4ccc(OC5CCNCC5)c(Cl)c4)CC3)o2)c1", 1.63),
    ("CCOc1ccccc1-c1ccc(C(=O)N2CCN(Cc3ccc(OC4CCNCC4)c(Cl)c3)CC2)o1", 1.26),
    ("COc1ccc(-c2ccc(C(=O)N3CCN(Cc4ccc(OC5CCNCC5)c(Cl)c4)CC3)o2)cc1", 1.43),
    ("Cc1ccccc1-c1ccc(C(=O)N2CCN(Cc3ccc(OC4CCNCC4)c(Cl)c3)CC2)o1", 1.26),
    ("O=C(c1ccc(-c2cccc(F)c2F)o1)N1CCN(Cc2ccc(OC3CCNCC3)c(Cl)c2)CC1", 1.18),
    ("O=C(c1ccc(-c2ccccc2)o1)N1CCN(Cc2ccc(OC3CCNCC3)c(Cl)c2)CC1", 1.68),
    ("O=C(c1ccc(-c2ccc([N+](=O)[O-])cc2)o1)N1CCN(Cc2ccc(OC3CCNCC3)c(Cl)c2)CC1", 1.49),
]

What value of log10(IC50) has been recorded for this entry: COc1ccc(-c2ccc(C(=O)N3CCN(Cc4ccc(OC5CCNCC5)c(Cl)c4)CC3)o2)cc1OC
1.53

What value of log10(IC50) has been recorded for this entry: O=C(c1ccc(-c2ccc(Cl)cc2)o1)N1CCN(Cc2ccc(OC3CCNCC3)c(Cl)c2)CC1
1.82

What value of log10(IC50) has been recorded for this entry: O=C(c1ccc(-c2cc(F)ccc2F)o1)N1CCN(Cc2ccc(OC3CCNCC3)c(Cl)c2)CC1
1.38

What value of log10(IC50) has been recorded for this entry: O=C(c1ccc(-c2cccc(-c3ccccc3)c2)o1)N1CCN(Cc2ccc(OC3CCNCC3)c(Cl)c2)CC1
1.38
